Hello, the source for this data is patent US20240360228A1, in case you need it.

# % Positive cells per record follows
molecular target: T1, human chemokine (C-C motif) receptor 8 (CCR8) (human, UniProt P51685 1-355); assay: flow cytometry blocking, human PBMC, CD3+ gate; % cells stained by competitor PE-433H after block
T1 construct: also called hCCR8
T1 sequence (P51685 whole entry): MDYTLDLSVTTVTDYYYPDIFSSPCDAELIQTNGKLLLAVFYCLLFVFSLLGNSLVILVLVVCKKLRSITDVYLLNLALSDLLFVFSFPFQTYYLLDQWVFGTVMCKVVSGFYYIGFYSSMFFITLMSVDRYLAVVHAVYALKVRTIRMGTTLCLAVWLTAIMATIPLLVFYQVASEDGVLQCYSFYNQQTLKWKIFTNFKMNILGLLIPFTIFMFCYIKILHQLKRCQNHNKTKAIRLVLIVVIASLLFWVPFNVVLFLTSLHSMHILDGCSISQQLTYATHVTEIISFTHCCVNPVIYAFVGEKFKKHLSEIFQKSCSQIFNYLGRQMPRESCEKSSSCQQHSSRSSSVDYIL
Value expressed in %; do not type the unit.

BINDER	% Positive cells (%)
anti-CCR8 monoclonal antibody AB13 (antibody, V domains shown, Hybridoma monoclonal; also called antibody 13; clone 13) VH: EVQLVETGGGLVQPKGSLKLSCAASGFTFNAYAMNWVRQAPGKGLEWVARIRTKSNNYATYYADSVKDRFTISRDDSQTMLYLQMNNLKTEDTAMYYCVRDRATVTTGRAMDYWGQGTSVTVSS VL: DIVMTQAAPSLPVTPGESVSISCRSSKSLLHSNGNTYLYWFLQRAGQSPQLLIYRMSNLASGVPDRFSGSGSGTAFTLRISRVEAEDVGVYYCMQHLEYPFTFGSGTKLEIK	6.58
anti-CCR8 monoclonal antibody AB6 (antibody, V domains shown, also called antibody 6; clone 6) VH: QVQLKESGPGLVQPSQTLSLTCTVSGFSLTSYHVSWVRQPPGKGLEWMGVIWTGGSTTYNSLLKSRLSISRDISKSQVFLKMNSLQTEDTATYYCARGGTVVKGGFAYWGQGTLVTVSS VL: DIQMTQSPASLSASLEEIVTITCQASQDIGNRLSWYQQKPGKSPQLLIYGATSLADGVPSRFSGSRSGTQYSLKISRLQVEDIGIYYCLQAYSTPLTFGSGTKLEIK	6.43

Exercise: Identify the reported % Positive cells for the following entry. anti-CCR8 monoclonal antibody AB10 (antibody, V domains shown, Hybridoma monoclonal; also called antibody 10; clone 10) VH: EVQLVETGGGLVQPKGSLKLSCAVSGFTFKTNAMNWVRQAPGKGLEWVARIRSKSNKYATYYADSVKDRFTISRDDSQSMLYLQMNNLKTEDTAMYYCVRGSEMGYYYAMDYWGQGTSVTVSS VL: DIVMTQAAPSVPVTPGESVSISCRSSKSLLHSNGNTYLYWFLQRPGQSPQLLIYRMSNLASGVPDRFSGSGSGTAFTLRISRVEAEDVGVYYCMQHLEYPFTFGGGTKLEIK
Key: 5.66
